Molecular target: Vasopressin V1b receptor (Homo sapiens)
Sequence (P47901 whole entry): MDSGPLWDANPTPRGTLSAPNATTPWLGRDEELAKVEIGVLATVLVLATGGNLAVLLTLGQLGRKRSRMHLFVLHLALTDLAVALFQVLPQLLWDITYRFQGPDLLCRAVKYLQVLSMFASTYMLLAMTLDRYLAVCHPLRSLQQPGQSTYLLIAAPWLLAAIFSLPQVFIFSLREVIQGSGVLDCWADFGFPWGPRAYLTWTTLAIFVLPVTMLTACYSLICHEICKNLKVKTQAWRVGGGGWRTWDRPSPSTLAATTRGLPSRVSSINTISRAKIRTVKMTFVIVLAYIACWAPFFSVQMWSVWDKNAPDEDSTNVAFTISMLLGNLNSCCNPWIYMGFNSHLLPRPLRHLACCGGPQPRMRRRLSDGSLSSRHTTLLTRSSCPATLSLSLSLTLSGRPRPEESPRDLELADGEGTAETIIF
Assay: Agonist activity at recombinant human vasopressin V1b receptor expressed in Flp-In-293 cells by luciferase reporter gene assay
Assay type: functional, cell-based
Conditions: read-out: EC50
Numbered stars: 1 amine (or outer) side, 2 acyl side, 3 side chain; on linkers, the order of the positions; unused ones are H or OH. Bridge positions count the residues as written; N and C are the ends. Square brackets hold non-standard residues; d marks the D form. Peptide text beside a SMILES is read from it. Orn(iPr) = CC(C)NCCC[C@H](N)C(=O)O; X1 = CCNCCC[C@H](N[*:1])C(=O)[*:2]; 3Thi = N[C@@H](Cc1ccsc1)C(=O)O; Cha = N[C@@H](CC1CCCCC1)C(=O)O; Orn = NCCC[C@H](N)C(=O)O
reported.property: EC50 (nM)
Number only, in nM; omit the unit.

Worked cases, EC50 given:
- compound: "CCNCCC[C@H](NC(=O)[C@@H]1CCCN1C(=O)[C@@H]1CSSC[C@H](N)C(=O)N[C@@H](Cc2ccccc2)C(=O)N[C@@H]([C@@H](C)CC)C(=O)N[C@@H](CC(N)=O)C(=O)N[C@@H](CC(N)=O)C(=O)N1)C(=O)NCC(N)=O (H-CFINNCP[X1]G-NH2; disulfide 1-6)"
  target: "Vasopressin V1b receptor (Homo sapiens)"
  reported.property: "EC50"
  reading: 120
- compound: "CC[C@H](C)[C@@H]1NC(=O)[C@H](Cc2ccsc2)NC(=O)[C@@H](N)CSSC[C@@H](C(=O)N2CCC[C@H]2C(=O)N[C@@H](CCCN)C(=O)NCC(N)=O)NC(=O)[C@H](CC(N)=O)NC(=O)[C@H](CC(N)=O)NC1=O (H-C[3Thi]INNCP[Orn]G-NH2; disulfide 1-6)"
  target: "Vasopressin V1b receptor (Homo sapiens)"
  reported.property: "EC50"
  reading: 350

Query string: Entry CC[C@H](C)[C@@H]1NC(=O)[C@H](CC2CCCCC2)NC(=O)[C@@H](N)CSSC[C@@H](C(=O)N2CCC[C@H]2C(=O)N[C@@H](CCCNC(C)C)C(=O)NCC(N)=O)NC(=O)[C@H](CC(N)=O)NC(=O)[C@H](CC(N)=O)NC1=O (H-C[Cha]INNCP[Orn(iPr)]G-NH2; disulfide 1-6) has what EC50?
Result string: 110

* * *

EC50 listing for selected compounds.
Molecular target: UniProt:P30559
Sequence (P30559 whole entry): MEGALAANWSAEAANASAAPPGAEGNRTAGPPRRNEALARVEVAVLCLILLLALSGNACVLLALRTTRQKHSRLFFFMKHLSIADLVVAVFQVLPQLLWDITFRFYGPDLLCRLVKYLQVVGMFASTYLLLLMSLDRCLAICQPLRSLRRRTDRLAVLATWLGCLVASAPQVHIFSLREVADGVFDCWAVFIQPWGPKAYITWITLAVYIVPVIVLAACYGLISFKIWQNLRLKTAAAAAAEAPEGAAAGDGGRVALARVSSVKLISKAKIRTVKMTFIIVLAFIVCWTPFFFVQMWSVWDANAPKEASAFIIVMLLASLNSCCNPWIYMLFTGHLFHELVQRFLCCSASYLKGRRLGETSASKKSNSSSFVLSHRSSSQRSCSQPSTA
Assay: Agonist activity at human OT receptor expressed in CHO-K1 cells by luciferase reporter gene assay
Assay type: functional, cell-based
Settings: read-out: pEC50 (converted)
Bridge positions count the residues as written; N and C are the ends. Square brackets hold non-standard residues; d marks the D form. Peptide text beside a SMILES is read from it. * marks the point of attachment. Ala(cPent) = N[C@@H](CC1CCCC1)C(=O)O; Orn = NCCC[C@H](N)C(=O)O; Dab = NCC[C@H](N)C(=O)O; Ac4c = NC1(C(=O)O)CCC1; Dap = NC[C@H](N)C(=O)O; X3 = OCCOCCN*

- compound: "CC[C@H](C)[C@@H]1NC(=O)C2(CCC2)NC(=O)[C@@H](N)CSSC[C@@H](C(=O)N2CCC[C@H]2C(=O)N[C@@H](CCN)C(=O)NCC(N)=O)NC(=O)[C@H](CC(N)=O)NC(=O)[C@H](CC(N)=O)NC1=O (H-C[Ac4c]INNCP[Dab]G-NH2; disulfide 1-6)"
  EC50: "> 10 µM"
- compound: "CC[C@H](C)[C@@H]1NC(=O)[C@H](CC2CCCC2)NC(=O)[C@@H](N)CSSC[C@@H](C(=O)N2CCC[C@H]2C(=O)N[C@@H](CCCN)C(=O)NCC(N)=O)NC(=O)[C@H](CC(N)=O)NC(=O)[C@H](CC(N)=O)NC1=O (H-C[Ala(cPent)]INNCP[Orn]G-NH2; disulfide 1-6)"
  EC50: "> 10 µM"
- compound: "CC[C@H](C)[C@@H]1NC(=O)[C@H](Cc2ccccc2)NC(=O)[C@@H](N)CSSC[C@@H](C(=O)N2CCC[C@H]2C(=O)N[C@@H](CN)C(=O)NCC(N)=O)NC(=O)[C@H](CC(N)=O)NC(=O)[C@H](CCC(N)=O)NC1=O (H-CFIQNCP[Dap]G-NH2; disulfide 1-6)"
  EC50: "> 10 µM"

Turning now to a further compound:
Query string: Entry CC[C@H](C)[C@@H]1NC(=O)[C@H](Cc2ccccc2)NC(=O)[C@@H](N)CSSC[C@@H](C(=O)N2CCC[C@H]2C(=O)N[C@@H](CCCN)C(=O)NCC(N)=O)NC(=O)[C@H](CC(N)=O)NC(=O)[C@H](CC(=O)NCCOCCO)NC1=O (H-CFID(X3)NCP[Orn]G-NH2; disulfide 1-6) has what EC50?
Result string: > 10 µM

* * *

Efficacy listing for selected compounds.
Target: Vasopressin V2 receptor (Homo sapiens, UniProt P30518)
Sequence (P30518 whole entry): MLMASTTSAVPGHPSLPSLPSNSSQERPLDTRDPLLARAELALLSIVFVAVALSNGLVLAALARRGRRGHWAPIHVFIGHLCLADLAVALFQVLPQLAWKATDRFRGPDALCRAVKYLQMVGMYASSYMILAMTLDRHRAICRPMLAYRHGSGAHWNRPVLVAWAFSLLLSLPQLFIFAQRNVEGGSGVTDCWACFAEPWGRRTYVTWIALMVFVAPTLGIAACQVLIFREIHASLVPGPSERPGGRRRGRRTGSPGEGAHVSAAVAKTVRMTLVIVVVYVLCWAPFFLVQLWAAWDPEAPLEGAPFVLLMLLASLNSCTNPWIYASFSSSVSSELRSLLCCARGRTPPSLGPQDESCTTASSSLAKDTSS
Assay: Partial agonist activity at recombinant human vasopressin V2 receptor expressed in HEK293 cells by luciferase reporter gene assay
Format: functional, cell-based
Bridge positions count the residues as written; N and C are the ends. Square brackets hold non-standard residues; d marks the D form. Peptide text beside a SMILES is read from it. * marks the point of attachment. Orn(iPr) = CC(C)NCCC[C@H](N)C(=O)O; 2Thi = N[C@@H](Cc1cccs1)C(=O)O; Orn = NCCC[C@H](N)C(=O)O; NHiBu = CC(C)CN*

- compound: "CC[C@H](C)[C@@H]1NC(=O)[C@H](Cc2ccccc2)NC(=O)[C@@H](N)CSSC[C@@H](C(=O)N2CCC[C@H]2C(=O)N[C@@H](CCCN)C(=O)NCC(N)=O)NC(=O)[C@H](CC(N)=O)NC(=O)[C@H](CCC(=O)NCC(C)C)NC1=O (H-CFIE(NHiBu)NCP[Orn]G-NH2; disulfide 1-6)"
  reading: "< 70%"

Turning now to a further compound:
Query string: Efficacy of CC[C@H](C)[C@@H]1NC(=O)[C@H](Cc2cccs2)NC(=O)[C@@H](N)CSSC[C@@H](C(=O)N2CCC[C@H]2C(=O)N[C@@H](CCCNC(C)C)C(=O)NCC(N)=O)NC(=O)[C@H](CC(N)=O)NC(=O)[C@H](CCC(N)=O)NC1=O (H-C[2Thi]IQNCP[Orn(iPr)]G-NH2; disulfide 1-6) on Vasopressin V2 receptor (Homo sapiens, UniProt P30518)?
Result string: < 70%

* * *

EC50 listing for selected compounds.
Molecular target: Vasopressin V1a receptor (Homo sapiens, UniProt P37288)
Sequence (P37288 whole entry): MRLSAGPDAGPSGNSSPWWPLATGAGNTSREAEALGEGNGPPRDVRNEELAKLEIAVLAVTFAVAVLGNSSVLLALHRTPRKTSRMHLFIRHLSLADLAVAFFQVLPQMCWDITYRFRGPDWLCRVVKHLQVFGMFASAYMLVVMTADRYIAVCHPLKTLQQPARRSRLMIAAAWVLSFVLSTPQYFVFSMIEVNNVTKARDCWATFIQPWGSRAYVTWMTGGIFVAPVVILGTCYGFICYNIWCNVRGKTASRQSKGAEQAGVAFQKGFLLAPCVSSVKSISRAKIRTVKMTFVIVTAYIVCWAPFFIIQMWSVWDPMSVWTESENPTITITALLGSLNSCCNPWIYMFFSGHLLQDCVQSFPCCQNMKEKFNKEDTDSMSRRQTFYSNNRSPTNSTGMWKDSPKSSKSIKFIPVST
Assay: Agonist activity at recombinant human vasopressin V1a receptor expressed in HEK293 cells by luciferase reporter gene assay
Assay type: functional, cell-based
Details: read-out: EC50
Numbered stars: 1 amine (or outer) side, 2 acyl side, 3 side chain; on linkers, the order of the positions; unused ones are H or OH. Bridge positions count the residues as written; N and C are the ends. Square brackets hold non-standard residues; d marks the D form. Peptide text beside a SMILES is read from it. Ala(cPent) = N[C@@H](CC1CCCC1)C(=O)O; Orn(iPr) = CC(C)NCCC[C@H](N)C(=O)O; X1 = CCNCCC[C@H](N[*:1])C(=O)[*:2]; Dab(iPr) = CC(C)NCC[C@H](N)C(=O)O; Orn(Pr) = CCCNCCC[C@H](N)C(=O)O; 3Thi = N[C@@H](Cc1ccsc1)C(=O)O; Aad = N[C@@H](CCCC(=O)O)C(=O)O; Dab = NCC[C@H](N)C(=O)O
In your response, put the unit directly after the numeric value.

- compound: "CC[C@H](C)[C@@H]1NC(=O)[C@H](Cc2ccccc2)NC(=O)[C@@H](N)CSSC[C@@H](C(=O)N2CCC[C@H]2C(=O)N[C@@H](CCNC(C)C)C(=O)NCC(N)=O)NC(=O)[C@H](CC(N)=O)NC(=O)[C@H](CCCC(N)=O)NC1=O (H-CFI[Aad](NH2)NCP[Dab(iPr)]G-NH2; disulfide 1-6)"
  reading: "18 nM"
- compound: "CC[C@H](C)[C@@H]1NC(=O)[C@H](Cc2ccccc2)NC(=O)[C@@H](N)CSSC[C@@H](C(=O)N2CCC[C@H]2C(=O)N[C@@H](CCCNC(C)C)C(=O)NCC(N)=O)NC(=O)[C@H](CC(N)=O)NC(=O)[C@H](CCC(N)=O)NC1=O (H-CFIQNCP[Orn(iPr)]G-NH2; disulfide 1-6)"
  reading: "0.38 nM"
- compound: "CCCNCCC[C@H](NC(=O)[C@@H]1CCCN1C(=O)[C@@H]1CSSC[C@H](N)C(=O)N[C@@H](Cc2ccccc2)C(=O)N[C@@H]([C@@H](C)CC)C(=O)N[C@@H](CCC(N)=O)C(=O)N[C@@H](CC(N)=O)C(=O)N1)C(=O)NCC(N)=O (H-CFIQNCP[Orn(Pr)]G-NH2; disulfide 1-6)"
  reading: "0.21 nM"
- compound: "CC[C@H](C)[C@@H]1NC(=O)[C@H](CC2CCCC2)NC(=O)[C@@H](N)CSSC[C@@H](C(=O)N2CCC[C@H]2C(=O)N[C@@H](CCN)C(=O)NCC(N)=O)NC(=O)[C@H](CC(N)=O)NC(=O)[C@H](CC(N)=O)NC1=O (H-C[Ala(cPent)]INNCP[Dab]G-NH2; disulfide 1-6)"
  reading: "11 nM"
- compound: "CCNCCC[C@H](NC(=O)[C@@H]1CCCN1C(=O)[C@@H]1CSSC[C@H](N)C(=O)N[C@@H](Cc2ccccc2)C(=O)N[C@@H]([C@@H](C)CC)C(=O)N[C@@H](CC(N)=O)C(=O)N[C@@H](CC(N)=O)C(=O)N1)C(=O)NCC(N)=O (H-CFINNCP[X1]G-NH2; disulfide 1-6)"
  reading: "0.99 nM"
- compound: "CCNC(=O)C[C@@H]1NC(=O)[C@H]([C@@H](C)CC)NC(=O)[C@H](Cc2ccccc2)NC(=O)[C@@H](N)CSSC[C@@H](C(=O)N2CCC[C@H]2C(=O)N[C@@H](CCN)C(=O)NCC(N)=O)NC(=O)[C@H](CC(N)=O)NC1=O (H-CFID(NHEt)NCP[Dab]G-NH2; disulfide 1-6)"
  reading: "2.7 nM"

Turning now to a further compound:
Query string: EC50 of CC[C@H](C)[C@@H]1NC(=O)[C@H](Cc2ccsc2)NC(=O)[C@@H](N)CSSC[C@@H](C(=O)N2CCC[C@H]2C(=O)N[C@@H](CCN)C(=O)NCC(N)=O)NC(=O)[C@H](CC(N)=O)NC(=O)[C@H](CCC(N)=O)NC1=O (H-C[3Thi]IQNCP[Dab]G-NH2; disulfide 1-6) on Vasopressin V1a receptor (Homo sapiens, UniProt P37288)?
Result string: 0.61 nM

Where do the numbers come from? From ChEMBL document CHEMBL1817572.
